# Protocol summary: PET hydrolysis product formed (TPA+MHET+BHET, UV-Vis) per mg enzyme (mmol/mg enzyme); higher = more PET depolymerisation activity; extreme values may be limits of the assay
# Setup conditions: PET substrate: aFilm; 60 °C; pH 7.5; 2 h
Measured property: PET hydrolysis product formed
Give bare numbers.

Would you please look over these solved cases?
- Sequence: "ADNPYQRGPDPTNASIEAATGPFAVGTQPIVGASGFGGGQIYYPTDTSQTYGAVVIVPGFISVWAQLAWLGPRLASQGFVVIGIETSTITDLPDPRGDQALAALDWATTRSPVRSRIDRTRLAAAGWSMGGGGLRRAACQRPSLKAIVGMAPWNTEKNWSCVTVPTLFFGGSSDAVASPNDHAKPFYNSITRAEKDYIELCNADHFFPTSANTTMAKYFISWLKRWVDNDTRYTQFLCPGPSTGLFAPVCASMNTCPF [CaPETaseM9]"
  Reported: 0.0032
- Sequence: "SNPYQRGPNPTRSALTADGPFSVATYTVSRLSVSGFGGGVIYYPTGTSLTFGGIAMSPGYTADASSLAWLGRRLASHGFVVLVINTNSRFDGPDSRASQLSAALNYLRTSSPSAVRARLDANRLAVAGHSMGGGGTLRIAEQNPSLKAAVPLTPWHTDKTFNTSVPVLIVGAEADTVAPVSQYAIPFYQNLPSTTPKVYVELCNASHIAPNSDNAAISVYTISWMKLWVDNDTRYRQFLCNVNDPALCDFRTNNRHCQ [LCC-A2]"
  Reported: 0.144
- Sequence: "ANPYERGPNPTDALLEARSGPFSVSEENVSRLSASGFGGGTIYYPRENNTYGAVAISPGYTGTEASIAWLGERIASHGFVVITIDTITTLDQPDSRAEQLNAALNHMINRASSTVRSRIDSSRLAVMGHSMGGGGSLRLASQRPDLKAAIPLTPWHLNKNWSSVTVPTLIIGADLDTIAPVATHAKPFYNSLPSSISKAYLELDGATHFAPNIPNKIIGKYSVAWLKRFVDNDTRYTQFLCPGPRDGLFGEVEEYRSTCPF [TfCut2]"
  Reported: 0.0101
- Sequence: "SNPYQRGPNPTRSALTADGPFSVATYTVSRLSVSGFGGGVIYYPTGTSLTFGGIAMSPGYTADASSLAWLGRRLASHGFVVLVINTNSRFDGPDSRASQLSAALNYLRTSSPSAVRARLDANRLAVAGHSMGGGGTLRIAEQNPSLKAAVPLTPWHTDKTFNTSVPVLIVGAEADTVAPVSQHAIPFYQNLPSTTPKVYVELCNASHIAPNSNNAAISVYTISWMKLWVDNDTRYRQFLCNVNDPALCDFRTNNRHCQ [LCC-ICCG]"
  Reported: 0.0795
- Sequence: "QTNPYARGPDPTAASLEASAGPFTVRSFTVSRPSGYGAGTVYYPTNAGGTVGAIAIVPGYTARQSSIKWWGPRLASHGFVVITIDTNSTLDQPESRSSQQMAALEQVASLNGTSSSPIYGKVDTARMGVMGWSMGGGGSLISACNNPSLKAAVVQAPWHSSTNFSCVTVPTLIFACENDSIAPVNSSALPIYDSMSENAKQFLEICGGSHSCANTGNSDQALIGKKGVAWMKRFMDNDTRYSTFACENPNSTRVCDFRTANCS [Z1-PETase]"
  Reported: 0.032

Kindly consider the entry below.
Specify reported PET hydrolysis product formed for the sequence shown: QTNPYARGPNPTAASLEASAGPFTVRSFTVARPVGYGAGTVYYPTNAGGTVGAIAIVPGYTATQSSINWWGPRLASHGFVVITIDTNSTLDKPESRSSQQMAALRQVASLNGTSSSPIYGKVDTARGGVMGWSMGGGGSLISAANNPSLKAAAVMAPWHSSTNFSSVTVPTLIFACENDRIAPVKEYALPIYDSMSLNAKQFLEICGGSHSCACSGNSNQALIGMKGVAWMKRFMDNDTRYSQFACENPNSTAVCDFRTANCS [HotPETase]
0.0712
